# Tested on: NCI-H1944;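 further: CTB read-out in 384-well plates, triplicate wells, NPI normalised per plate against 1 µM phenylarsine oxide (0) and 0.1% DMSO (1) controls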
# assaySummary: normalised cell viability (NPI; 0 = phenylarsine oxide control, 1 = DMSO control) (fraction of DMSO control); NCI-H1944 is a non-small cell lung cancer line; higher = more viable cells (less compound toxicity)
# assaySetup: glucocorticoid arm: hydrocortisone 2.75 uM pre-treated 2 days and continued; compound 5 µM; 6 days
Counter-ions that a name gives are not always drawn. In all, about 1,900 compounds were measured (“normalised cell viability (NPI; 0 = phenylarsine oxide control, 1 = DMSO control)”: median about 1, lowest 2% from about 0.039 on). Shown is part of a subset that was picked to be rich in the lowest values.
assayMetric: normalised cell viability
One number for each entry.

Guide cases for normalised cell viability, answers given:
Asked: normalised cell viability for NC1(C(=O)O)CCCCC1 [1-Amino-1-cyclohexanecarboxylic acid hydrochloride] ?
Given back: 0.991

Asked: # repeat for CN(C)CCC(c1ccc(Br)cc1)c1ccccn1 (racemic) [(±)-Brompheniramine maleate]
Given back: 1.04

Asked: Input `O=C(O)C1CCNCC1`
Given back: 1.04

Quick batch: normalised cell viability for everything below.
1. C/C(=C\c1csc(C)n1)[C@@H]1C[C@@H]2O[C@]2(C)CCC[C@H](C)[C@H](O)[C@@H](C)C(=O)C(C)(C)[C@@H](O)CC(=O)N1 [Ixabepilone]
2. NCC(=O)CCC(=O)O [Aminolevulinic acid hydrochloride; Aminolevulinic acid]
3. COc1[nH]c2ccc(F)cc2c1C(=O)OCC1CCN(CCNS(C)(=O)=O)CC1.NS(=O)(=O)O
4. O=[N+]([O-])c1ccc(CSc2ncnc3c2ncn3[C@@H]2O[C@H](CO)[C@@H](O)[C@H]2O)cc1
5. CCN1C(=CC(C)=O)Sc2ccc(OC)cc21
6. CN(C)C(=O)C(CCN1CCC(O)(c2ccc(Cl)cc2)CC1)(c1ccccc1)c1ccccc1 [Loperamide HCl]
7. Nc1nccc2c1ncn2[C@@H]1O[C@H](CO)[C@@H](O)[C@H]1O

Given back:
1: 0.477; 2: 0.486; 3: 0.989; 4: 0.996; 5: 0.839; 6: 0.984; 7: 0.981

Provide reported normalised cell viability for each item, in the same order as listed.
1. CC(C)N(CCCNC(=O)Nc1ccc(C(C)(C)C)cc1)C[C@H]1O[C@@H](n2ccc3c(N)ncnc32)[C@H](O)[C@@H]1O
2. CNC(=O)c1nn(C)c2c1C(C)(C)Cc1cnc(Nc3ccc(N4CCN(C)CC4)cc3)nc1-2
3. CCC(=O)N1CCN(c2ccc(-n3c(=O)ccc4cnc5ccc(-c6cnc7ccccc7c6)cc5c43)cc2C(F)(F)F)CC1
4. O=C(O)C=C1CCCc2ccccc2C1O (stereo unspecified)
5. COC(=O)[C@]12CCC(C)(C)C[C@H]1[C@H]1C(=O)C=C3[C@@]4(C)C=C(C#N)C(=O)C(C)(C)[C@@H]4CC[C@@]3(C)[C@]1(C)CC2
6. COc1cc(CC(=O)O)ccc1O [4-Hydroxy-3-methoxyphenylacetic acid]

Given back:
1.04
0.424
0.518
0.994
1.1
1.02

// data source = the supplement of paper PMC8285479
